experiment: NCI Yeast Anticancer Drug Screen. Data for the mgt1 strain (AID 153); conditions: S. cerevisiae mgt1 mutant growth inhibition; at 1.2 µM; hits give high values
About 79,000 compounds went through this panel and 15% of them were active in at least one assay; those are over-represented in the sample as a whole.
// growth inhibition lookup, one value per entry
Write the number in % without appending the unit.

// solved cases for growth inhibition follow
[[record]]
compound = "O=C(/C=C\\c1cccc(C(F)(F)F)c1)c1ccccc1"
experimental_value = -3

[[record]]
compound = "COc1cc(/C=C2\\NC(=O)N(/C=C3\\C(=O)Oc4ccccc4C3=O)C2=O)ccc1O"
experimental_value = -3

[[record]]
compound = "COc1cc(C2SCC(=O)N2c2ccc(-c3ccc(-n4c(-c5ccccc5)nc5ccccc5c4=O)cc3)cc2)ccc1O (centres undefined)"
experimental_value = 1

[[record]]
compound = "O=C1NC(SSC2=NNC3(C(=O)N2)c2ccccc2-c2ccccc23)=NNC12c1ccccc1-c1ccccc12"
experimental_value = 1

[[record]]
compound = "CCN(CC)CCNc1ccc2ncn3c4cc(OC)c(OC)c(=O)c4c(O)c1c23"
experimental_value = 1

[[record]]
compound = "CCOC(=N)c1ccc(O)c(OC)c1"
experimental_value = -2


// recorded growth inhibition for "CCCCCCSc1ncnc2[nH]ncc12" : -2

Noted for CCOC(=O)CC1(C(=O)OCC)c2[nH]c3ccccc3c2CCN1Cc1ccccc1 (centres undefined) : its growth inhibition reads -2

GET /value?item= "O=C(O)c1cc2ccc(Cl)cc2c(O)c1C1=CCCCC1" &field=growth inhibition returns 7

Reported growth inhibition for OC1(c2ccccc2)CCCc2ccc(Cl)cc21 (centres undefined) was -10

Noted for CN(C)c1ccc(C2CC(C)(O)Oc3cc4c(cc32)OCO4)cc1 (centres undefined) : its growth inhibition reads -2

Short answer for "Cc1ccc([N+]2=NC(c3ccccc3)=NN(c3ccccc3)C2)cc1" : growth inhibition was 7

growth inhibition for "CCOC1=C/C(=N\Nc2ccc([N+](=O)[O-])cc2)CCC1" is 3

The compound listed as CCOC(=O)C1N=[N+](c2ccccc2)C(=O)/C1=C\n1c(=S)[nH]c2ccc([N+](=O)[O-])cc21 (centres undefined) shows growth inhibition equal to -1

growth inhibition recorded for this compound, "O=[N+]([O-])/C=C/c1cc(Cl)c(/C=C/[N+](=O)[O-])cc1Cl" , is 36

For reference, reported growth inhibition for CCCCCCN(CCCCCC)CC(O)c1ccnc2ccc(OC)cc12 (centres undefined) stands at 1

Per the records, this compound ( "CCCC/C([O-])=C1/C(=O)N(c2ccccc2)N=C1C.CCCC/C([O-])=C1/C(=O)N(c2ccccc2)N=C1C.[Cu+2]" ) has growth inhibition equal to -2

compound CN(C)CCOC1(Cc2ccc(F)cc2)CCC(C(C)(C)C)CC1 (centres undefined) , growth inhibition observed: 18

growth inhibition reading for C[Si](C)(C)/C=C/CCNC(C#N)c1ccccc1 (centres undefined) : -14

Recorded result, N#CC1=C(N)N(/N=C/c2ccccc2)C(c2ccccc2)C1(C#N)C#N (centres undefined) , growth inhibition: 8

growth inhibition for "Cc1ccc(N=Nc2ccc(O)c(=O)cc2)cc1" is 8

Summary for this compound, "O=[N+]([O-])c1cc[n+]([O-])cc1" : growth inhibition is -1

Entry "O=Cc1ccc2c(c1)C(=O)c1ccccc1C2=O" ; growth inhibition = 0

Input "COC(=O)Nc1cn2ccc(C(Cl)=C(Cl)Cl)cc2n1" . Output growth inhibition: -21

Entry source: PubChem BioAssay (NCI)
